Tested Target: MCL-1 (Homo sapiens (Human), UniProt Q07820)
Sequence (Q07820 whole entry): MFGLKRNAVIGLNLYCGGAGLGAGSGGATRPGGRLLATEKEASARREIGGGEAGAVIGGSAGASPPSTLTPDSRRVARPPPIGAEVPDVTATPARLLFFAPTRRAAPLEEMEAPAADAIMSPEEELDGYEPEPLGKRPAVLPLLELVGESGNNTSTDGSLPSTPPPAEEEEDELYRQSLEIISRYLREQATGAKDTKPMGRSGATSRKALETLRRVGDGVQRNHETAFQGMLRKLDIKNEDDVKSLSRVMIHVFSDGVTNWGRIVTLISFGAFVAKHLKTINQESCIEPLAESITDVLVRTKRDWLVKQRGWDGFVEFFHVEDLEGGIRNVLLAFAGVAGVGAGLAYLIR
Experiment: Cell free Mcl-1:Bim affinity assay (fluorescence polarization competition)
Type: binding
Settings: 15 nM MCL-1, 5 nM FITC-Bim, 1 hour at room temperature; class symbols; read-out: BIM_Ki
pKi: −log10 of the molar value.
Entries and their pKi

| Compound | Meas Value |
| --- | --- |
| O=C1Cc2cc(OCCN3CCOCC3)cc(c2)OC[C@@H]2CC[C@H]2CN2C[C@@]3(CCCc4cc(Cl)ccc43)COc3ccc(cc32)S(=O)(=O)N1 [Example 105] | 7.00 to 9.00 |
| CN(C)C(=O)O[C@@]1(C)/C=C/COC(C)(C)C(=O)NS(=O)(=O)c2ccc3c(c2)N(C[C@@H]2CC[C@H]21)C[C@@]1(CCCc2cc(Cl)ccc21)CO3 [Example 293] | > 9.00 |
| COCCN(C)C(=O)O[C@H]1/C=C/COC(C)(C)C(=O)NS(=O)(=O)c2ccc3c(c2)N(C[C@@H]2CC[C@H]21)C[C@@]1(CCCc2cc(Cl)ccc21)CO3 [Example 159] | > 9.00 |

Item CO[C@@H]1/C=C/C[C@H](C)CC(=O)NS(=O)(=O)c2ccc3c(c2)N(C[C@@H]2CC[C@H]21)C[C@@]1(CCCc2cc(Cl)ccc21)CO3 [Example 71] was tested on MCL-1 (Homo sapiens (Human), UniProt Q07820); the reported pKi is 7.00 to 9.00

Item CN(C(=O)O[C@H]1/C=C/COC(C)(C)C(=O)NS(=O)(=O)c2ccc3c(c2)N(C[C@@H]2CC[C@H]21)C[C@]1(CO3)OCCc2cc(Cl)ccc21)C1COC1 [Example 298] was tested on MCL-1 (Homo sapiens (Human), UniProt Q07820); the reported pKi is > 9.00
